# System under test: D(3) dopamine receptor (Homo sapiens, UniProt P35462)
# Sequence (P35462 whole entry): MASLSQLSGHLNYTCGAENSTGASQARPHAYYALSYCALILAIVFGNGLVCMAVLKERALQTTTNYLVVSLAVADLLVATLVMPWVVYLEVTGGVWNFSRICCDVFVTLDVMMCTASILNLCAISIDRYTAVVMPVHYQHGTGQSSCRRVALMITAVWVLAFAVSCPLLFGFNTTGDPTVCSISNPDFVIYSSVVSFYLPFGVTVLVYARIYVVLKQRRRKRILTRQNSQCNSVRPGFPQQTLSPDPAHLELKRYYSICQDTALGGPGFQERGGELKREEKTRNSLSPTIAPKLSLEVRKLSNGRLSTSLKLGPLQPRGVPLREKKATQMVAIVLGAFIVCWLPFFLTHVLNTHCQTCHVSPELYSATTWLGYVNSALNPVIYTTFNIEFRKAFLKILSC
# Test description: DRUGMATRIX: Dopamine D3 radioligand binding (ligand: [3H] Spiperone)
# Format: cell membranes, CHO, Membrane
# Applied conditions: read-out: Ki
Value type: log10 Ki (log10 of the value in nM)
Please note: log10 values; quantity Ki; unit nM.

Example molecules with recorded log10 Ki:
The molecule identified as CC(CN1c2ccccc2Sc2ccccc21)N(C)C (stereo not given) registered its log10 Ki at 2.28

The molecule identified as COc1ccccc1OCCNCC(O)COc1cccc2[nH]c3ccccc3c12 (stereo not given) registered its log10 Ki at 2.29

The recorded log10 Ki for entry "CCOC(=O)C1=C(C)NC(C)=C(C(=O)OCC)C1c1ccccc1/C=C/C(=O)OC(C)(C)C" equals 3.32

Just so you know, measured log10 Ki for "Clc1cc(Cl)c(OCC#CI)cc1Cl" came out at 2.22

Attention now turns to another entry.
Looking up c1ccc2sc(SSc3nc4ccccc4s3)nc2c1 [BENZOTHIAZYL DISULFIDE] , I found its log10 Ki recorded as 2.46
